System Name: human NaV subtype, like NaV 1.7 (Homo sapiens)
Test Protocol: E-VIPR optical membrane potential assay with electrical stimulation
Reported Conditions: active against one or more sodium channels; Table 3 does not name the assay or NaV subtype; read-out: Binned Activity Data (IC50)
pIC50: −log10 of the molar value.
Measurement Type: pIC50

Task item: // fetch pIC50 for COc1ccc(C(=O)N2CCC3(CC2)c2ccc(C(=O)C(F)(F)F)n2CCN3C)cc1F ; system: human NaV subtype, like NaV 1.7 (Homo sapiens)
Reply: < 5.30

Task item: // fetch pIC50 for COc1ccc(C(=O)N2CCC3(CC2)c2ccc(C(=O)C(F)(F)F)n2C(C)CN3C)cc1Cl (stereo not shown) ; system: human NaV subtype, like NaV 1.7 (Homo sapiens)
Reply: ≥ 5.70

Task item: // fetch pIC50 for CC(=O)c1ccc2n1C(C)(C)CN(C)C21CCN(C(=O)c2ccc(OC(C)C)c(C(F)(F)F)c2)CC1 ; system: human NaV subtype, like NaV 1.7 (Homo sapiens)
Reply: 5.30 to 5.70

Task item: // fetch pIC50 for CCC(C)(C)c1ccc(C(=O)N2CCC3(CC2)c2ccc(C(C)=O)n2CCN3C)cc1 ; system: human NaV subtype, like NaV 1.7 (Homo sapiens)
Reply: < 5.30

Task item: // fetch pIC50 for CN1CCn2c(Cl)ccc2C12CCN(C(=O)c1ccc(C3CCCCC3)cc1)CC2 ; system: human NaV subtype, like NaV 1.7 (Homo sapiens)
Reply: ≥ 5.70

Task item: // fetch pIC50 for CN1CCn2c(C(=O)C(F)(F)F)ccc2C12CCN(C(=O)c1cc(O)ccc1F)CC2 ; system: human NaV subtype, like NaV 1.7 (Homo sapiens)
Reply: < 5.30

Task item: // fetch pIC50 for CC(C)Nc1ncccc1C(=O)N1CCC2(CC1)c1ccc(C(F)(F)F)n1CCN2C ; system: human NaV subtype, like NaV 1.7 (Homo sapiens)
Reply: 5.30 to 5.70

Task item: // fetch pIC50 for CC(C)Cc1ccc(C(=O)N2CCC3(CC2)c2ccc(C(=O)C(F)(F)F)n2CCN3C)cc1 ; system: human NaV subtype, like NaV 1.7 (Homo sapiens)
Reply: ≥ 5.70

Task item: // fetch pIC50 for COc1ccc(C(=O)N2CCC3(CC2)NCC(C)n2c(C(=O)C(F)(F)F)ccc23)cc1C(F)(F)F (stereo not shown) ; system: human NaV subtype, like NaV 1.7 (Homo sapiens)
Reply: ≥ 5.70

Task item: // fetch pIC50 for Cc1cc(C(=O)N2CCC3(CC2)c2cccn2CCN3C)ccc1OC(C)C ; system: human NaV subtype, like NaV 1.7 (Homo sapiens)
Reply: < 5.30

Task item: // fetch pIC50 for CCNc1ccnc2c(C(=O)N3CCC4(CC3)c3ccc(C(F)(F)F)n3CCN4C)cnn12 ; system: human NaV subtype, like NaV 1.7 (Homo sapiens)
Reply: ≥ 5.70

Task item: // fetch pIC50 for CCCCOc1ccc(C(=O)N2CCC3(CC2)c2ccc(C(=O)C(F)(F)F)n2CCN3C)cc1OC ; system: human NaV subtype, like NaV 1.7 (Homo sapiens)
Reply: ≥ 5.70

Task item: // fetch pIC50 for Cc1cc(C(=O)N2CCC3(CC2)c2ccc(C(=O)C(F)(F)F)n2CCN3C)ccc1-c1ccc(C#N)nc1 ; system: human NaV subtype, like NaV 1.7 (Homo sapiens)
Reply: ≥ 5.70

Task item: // fetch pIC50 for CNC(=O)N1CCn2c(C(F)(F)F)ccc2C12CCN(C(=O)c1ccc(OC(C)C)cc1F)CC2 ; system: human NaV subtype, like NaV 1.7 (Homo sapiens)
Reply: 5.30 to 5.70

Task item: // fetch pIC50 for COc1ccc(C(=O)N2CCC3(CC2)c2ccc(C(=O)C(C)C)n2CCN3C)cc1C(F)(F)F ; system: human NaV subtype, like NaV 1.7 (Homo sapiens)
Reply: ≥ 5.70

Task item: // fetch pIC50 for CN1CCn2c(C(=O)C3(C)CC3)ccc2C12CCN(C(=O)c1ccc(O)c(Cl)c1)CC2 ; system: human NaV subtype, like NaV 1.7 (Homo sapiens)
Reply: ≥ 5.70

* * *

System Name: human NaV subtype, like NaV 1.7 (Homo sapiens, UniProt Q15858)
Sequence (Q15858 whole entry): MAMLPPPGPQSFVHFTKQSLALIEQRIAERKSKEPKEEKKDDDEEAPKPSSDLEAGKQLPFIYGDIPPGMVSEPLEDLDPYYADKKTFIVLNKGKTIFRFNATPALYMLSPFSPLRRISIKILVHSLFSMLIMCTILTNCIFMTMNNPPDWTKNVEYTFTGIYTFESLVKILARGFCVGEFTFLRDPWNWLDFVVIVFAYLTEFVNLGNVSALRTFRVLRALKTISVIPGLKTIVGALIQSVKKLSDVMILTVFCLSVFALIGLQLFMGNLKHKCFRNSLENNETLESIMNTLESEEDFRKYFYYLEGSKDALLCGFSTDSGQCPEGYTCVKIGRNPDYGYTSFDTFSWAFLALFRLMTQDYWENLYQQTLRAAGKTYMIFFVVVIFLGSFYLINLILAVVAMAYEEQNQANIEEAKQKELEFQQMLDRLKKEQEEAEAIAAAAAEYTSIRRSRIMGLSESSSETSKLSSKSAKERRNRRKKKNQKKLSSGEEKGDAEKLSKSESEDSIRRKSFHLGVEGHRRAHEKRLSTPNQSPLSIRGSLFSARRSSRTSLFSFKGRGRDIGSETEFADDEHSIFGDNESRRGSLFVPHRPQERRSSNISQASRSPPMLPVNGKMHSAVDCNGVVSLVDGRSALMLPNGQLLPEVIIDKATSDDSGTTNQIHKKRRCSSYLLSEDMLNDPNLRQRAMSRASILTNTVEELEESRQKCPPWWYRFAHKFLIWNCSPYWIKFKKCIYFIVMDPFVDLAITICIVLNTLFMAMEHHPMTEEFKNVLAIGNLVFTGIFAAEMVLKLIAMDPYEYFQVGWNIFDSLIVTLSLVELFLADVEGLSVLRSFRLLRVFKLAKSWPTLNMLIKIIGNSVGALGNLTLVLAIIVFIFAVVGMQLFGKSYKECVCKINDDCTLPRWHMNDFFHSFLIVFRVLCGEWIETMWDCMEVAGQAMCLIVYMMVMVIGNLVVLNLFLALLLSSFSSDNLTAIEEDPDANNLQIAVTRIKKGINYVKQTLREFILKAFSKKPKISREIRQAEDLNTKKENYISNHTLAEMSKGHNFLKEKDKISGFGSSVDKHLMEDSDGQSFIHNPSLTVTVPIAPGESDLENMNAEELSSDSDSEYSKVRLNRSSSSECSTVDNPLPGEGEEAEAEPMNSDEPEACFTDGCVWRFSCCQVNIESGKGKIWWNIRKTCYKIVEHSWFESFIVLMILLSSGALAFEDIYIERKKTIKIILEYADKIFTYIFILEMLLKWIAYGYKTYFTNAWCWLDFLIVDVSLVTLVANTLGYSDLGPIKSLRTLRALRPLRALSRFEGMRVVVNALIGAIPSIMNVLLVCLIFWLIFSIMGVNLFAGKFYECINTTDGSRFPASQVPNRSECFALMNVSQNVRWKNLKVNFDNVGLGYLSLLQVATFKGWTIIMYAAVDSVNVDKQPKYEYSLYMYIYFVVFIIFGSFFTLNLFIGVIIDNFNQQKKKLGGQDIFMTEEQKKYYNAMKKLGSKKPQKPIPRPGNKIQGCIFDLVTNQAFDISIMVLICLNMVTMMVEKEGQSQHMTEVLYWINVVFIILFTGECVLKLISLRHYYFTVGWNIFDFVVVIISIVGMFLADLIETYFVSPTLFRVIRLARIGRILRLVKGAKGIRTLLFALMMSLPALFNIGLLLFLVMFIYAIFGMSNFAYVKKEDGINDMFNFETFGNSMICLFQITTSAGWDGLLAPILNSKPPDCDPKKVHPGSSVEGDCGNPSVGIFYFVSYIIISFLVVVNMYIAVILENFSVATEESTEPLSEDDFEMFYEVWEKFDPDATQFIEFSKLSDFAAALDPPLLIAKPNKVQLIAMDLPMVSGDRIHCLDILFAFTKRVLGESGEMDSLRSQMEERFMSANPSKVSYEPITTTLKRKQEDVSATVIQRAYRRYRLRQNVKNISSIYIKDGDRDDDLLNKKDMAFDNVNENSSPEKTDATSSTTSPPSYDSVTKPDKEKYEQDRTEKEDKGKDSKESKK
Test Protocol: E-VIPR optical membrane potential assay with electrical stimulation
Reported Conditions: active against one or more sodium channels; Table 3 does not name the assay or NaV subtype; read-out: Binned Activity Data (IC50)
Provide the recorded IC50 for the entries that follow.

Task item: Indicate the recorded IC50 value for this compound: COc1ccc(C(=O)N2CCC3(CC2)c2ccc(C(=O)C4(C)CC4)n2CCN3C)nc1C
Reply: ≤ 2 µM

Task item: Indicate the recorded IC50 value for this compound: CN1CCn2c(Cl)ccc2C12CCN(C(=O)c1ccc(S(=O)(=O)C(F)F)cc1)CC2
Reply: > 5 µM

Task item: Indicate the recorded IC50 value for this compound: O=C(c1ccccc1-c1ccccc1)N1CCC2(CC1)NCCn1c(C(F)(F)F)ccc12
Reply: > 5 µM

Task item: Indicate the recorded IC50 value for this compound: COC(=O)C1CN(C)C2(CCN(C(=O)c3ccc(OC(C)C)c(OC)c3)CC2)c2ccc(C(F)(F)F)n21 (stereo not shown)
Reply: 2 to 5 µM

Task item: Indicate the recorded IC50 value for this compound: COc1ccc(-c2ccc(C(=O)N3CCC4(CC3)c3ccc(C(=O)C(F)(F)F)n3CCN4C)cc2C)cc1
Reply: ≤ 2 µM

Task item: Indicate the recorded IC50 value for this compound: COc1ccc(C(=O)N2CCC3(CC2)c2ccc(C(=O)C4CC4)n2CCN3C)cc1C
Reply: ≤ 2 µM

Task item: Indicate the recorded IC50 value for this compound: COc1cc(C(=O)N2CCC3(CC2)c2c(Cl)cc(C(F)(F)F)n2CCN3C)ccc1COCCC(F)(F)F
Reply: ≤ 2 µM

* * *

Provide the recorded IC50 for the entries that follow.
System Name: human NaV subtype, like NaV 1.7 (Homo sapiens, UniProt Q15858)
Test Protocol: E-VIPR optical membrane potential assay with electrical stimulation
Reported Conditions: active against one or more sodium channels; Table 3 does not name the assay or NaV subtype; read-out: Binned Activity Data (IC50)
From the text: Assays for Detecting and Measuring NaV Inhibition Properties of Compound E-VIPR Optical Membrane Potential Assay Method with Electrical Stimulation Sodium channels are voltage-dependent proteins that can be activated by inducing membrane voltage changes by applying electric fields. The electrical stimulation instrument and methods of use are described in Ion Channel Assay Methods PCT/US01/21652, herein incorporated by reference and are referred to as E-VIPR. […] 7) Read Plate on E-VIPR. […]

Task item: Indicate the recorded IC50 value for this molecule: Cc1cc(C(=O)N2CCC3(CC2)c2ccc(Cl)n2CCN3C)ccc1-c1ccccc1 [Compound 424]
Reply: ≤ 2000 nM

Task item: Indicate the recorded IC50 value for this molecule: CN1CCn2c(C(=O)C(F)(F)F)ccc2C12CCN(C(=O)c1ccc(C(CO)OCC(F)(F)F)cc1)CC2 (centres unmarked) [Compound 136]
Reply: ≤ 2000 nM

Task item: Indicate the recorded IC50 value for this molecule: COc1ccc(C(=O)N2CCC3(CC2)NC(C)(C)Cn2c(C(=O)C(F)(F)F)ccc23)cc1C [Compound 612]
Reply: ≤ 2000 nM

Task item: Indicate the recorded IC50 value for this molecule: COc1cc(C(=O)N2CCC3(CC2)NCC(=O)n2c(C(F)(F)F)ccc23)ccc1OC(C)C [Compound 4]
Reply: > 5000 nM

Task item: Indicate the recorded IC50 value for this molecule: COc1cc(C(=O)N2CCC3(CC2)c2c(Br)cc(C(F)(F)F)n2CCN3C)ccc1OC(C)C [Compound 348]
Reply: ≤ 2000 nM

Task item: Indicate the recorded IC50 value for this molecule: CC(=O)c1ccc2n1CCN(C)C21CCN(C(=O)c2ccc(C3CCCCC3)cc2)CC1 [Compound 559]
Reply: ≤ 2000 nM

Task item: Indicate the recorded IC50 value for this molecule: CCn1cnc(-c2ccc(C(=O)N3CCC4(CC3)c3ccc(C(=O)C(F)(F)F)n3CCN4C)cc2C)c1 [Compound 489]
Reply: ≤ 2000 nM

Task item: Indicate the recorded IC50 value for this molecule: Cc1cc(C(=O)N2CCC3(CC2)c2cccn2CCN3C)ccc1C(C)(C)O [Compound 457]
Reply: > 5000 nM
